Numbers sourced from PubChem BioAssay AID1996.

EXPERIMENTAL_SETUP: buffer; pH 7.4; 200.0 µM

MOLECULE | solubility kinetic
COc1cc(C2NC(=O)NC(C)=C2[N+](=O)[O-])cc(OC)c1OC (stereo unspecified) | 47.3 µg/mL
CCN(C(=O)CSc1cccc[n+]1[O-])c1ccccc1 | > 43.3 µg/mL
NC(=O)c1ccc(NC(=O)COC(=O)/C=C/c2ccc(Br)o2)cc1 | 7.3 µg/mL
Cc1nc(SCCO)c([N+](=O)[O-])[nH]1 | > 30.5 µg/mL
COc1ccc(Cl)cc1C(=O)Nc1nc2ccccc2[nH]1 | 1.2 µg/mL
CCN(CC)c1ccc(NC(=O)c2ccccc2Br)cc1S(=O)(=O)Nc1ccccc1OC | 0.6 µg/mL

* * *

EXPERIMENTAL_SETUP: buffer; pH 7.4; 200.0 µM
Records here are stratified by solubility kinetic; strata: bottom range: < 6 µg/mL; center range: ≥ 6 µg/mL and < 20 µg/mL; top range: ≥ 20 µg/mL

MOLECULE | QUALITATIVE_LABEL
O=C(CN1C(=O)NC2(CCCCCCC2)C1=O)Nc1c(Cl)cccc1Cl | center range
Cc1sc2ncnc(N3CCCC(C)C3)c2c1C.Cl (centres undefined) | center range
Cc1ccc(CNC(=O)COC(=O)c2cnc(C)cn2)cc1 | top range
CN(C(=O)c1ccc(Br)cc1)C1CCS(=O)(=O)C1 (centres undefined) | top range
COc1ccc2cc(S(=O)(=O)Nc3ccccn3)ccc2c1 | center range
CC(=O)c1cccc(NC(=O)NCCc2c[nH]c3ccccc23)c1 | bottom range
CC(=O)N(C)N(C)c1cc(C)nc(N)n1 | top range
CCn1ccnc1CN(C)Cc1nc(-c2cccc(Cl)c2)no1 | top range
Cc1cccc(NC(=O)CCS(=O)(=O)c2ccccc2)c1 | top range
CC1(C(=O)NCCOc2ccccc2Cl)CC1(Cl)Cl (centres undefined) | top range
O=C(COC(=O)/C=C/c1cccc(F)c1)Nc1cccc(S(=O)(=O)NC2=NCCCCC2)c1 | center range
CC(C)(C)NC(=O)CN(C(=O)C1CSC(=O)C1)c1ccccc1F (centres undefined) | top range
O=C(Nc1cccc2ccccc12)c1ccc([N+](=O)[O-])o1 | top range
CC(=O)c1ccc(N(CC(=O)Nc2cc(C)on2)S(=O)(=O)c2ccc(C)cc2)cc1 | center range
Cl.Oc1ccccc1CNCC12CC3CC(CC(C3)C1)C2 | top range
CCN(C(=O)COC(=O)c1nccnc1N)c1cccc2ccccc12 | top range
COc1ccc(NC(=O)C2CCOC(C)(C)C2)cc1 (centres undefined) | top range
CCCCn1c(=N)n(CC(O)c2ccccc2)c2ccccc21.Cl (centres undefined) | top range
COc1ccc(-c2nc3ccccc3o2)cc1OC | bottom range
Oc1ccc2ccccc2c1C=Nc1ccccc1Br | bottom range
COc1ccc(/C=C2\SC(N)=NC2=O)cc1Br | bottom range
CCCCCCC(=O)N(O)C1CC(=O)N(c2ccc(F)cc2)C1=O (centres undefined) | top range
Oc1ccc(/C=C/c2ccc3cccc(O)c3n2)cc1Br | bottom range
Cc1noc(C)c1C(=O)NC(Cc1c[nH]c2ccccc12)C(=O)O (centres undefined) | top range

* * *

EXPERIMENTAL_SETUP: buffer; pH 7.4; 200.0 µM
solubility kinetic listing for selected compounds.
MEASURED_PROPERTY: solubility kinetic (µg/mL)

COMPOUND | MEASURED_PROPERTY | QUANTITY_UNIT | READING_QUALIFIER | MEASURED_RESULT
O=C(O)CNS(=O)(=O)c1c(Cl)cccc1Cl | solubility kinetic | µg/mL | > | 42.6
Cc1nc(N)c(Cc2ccccc2F)c(N)n1 | solubility kinetic | µg/mL | > | 34.8
CC(C)CC(=O)N1CCN(Cc2cccc(Cl)c2)CC1 | solubility kinetic | µg/mL | = | 24.8
COc1ccc(S(=O)(=O)N2CCC(N3CCCC3)CC2)cc1 | solubility kinetic | µg/mL | = | 46.7
C=CC[n+]1c(C)csc1Nc1cccc(Br)c1.[Br-] | solubility kinetic | µg/mL | = | 3.3
CCOC(=O)C1(Cc2cccc(F)c2)CCN(CC2CC2)CC1 | solubility kinetic | µg/mL | > | 47.9
CSc1ncccc1C(=O)Nc1ncc(C)s1 | solubility kinetic | µg/mL | = | 5.7
Nc1ccc(Cl)c(S(=O)(=O)Nc2ccc(Cl)cc2)c1 | solubility kinetic | µg/mL | = | 43.4
Cc1ccc(OCC(=O)Oc2ccccc2[N+](=O)[O-])cc1 | solubility kinetic | µg/mL | = | 17.4
Cc1nn(C)c(C)c1NS(=O)(=O)c1ccc(Cl)s1 | solubility kinetic | µg/mL | > | 45.9
O=C(NC(=S)Nc1cccc([N+](=O)[O-])c1)C1CCCC1 | solubility kinetic | µg/mL | = | 2.6
O=C1/C(=C/c2ccccn2)SC(=S)N1Cc1ccccc1 | solubility kinetic | µg/mL | < | 0.3
O=C(Nc1ccccc1C(=O)Nc1ccncc1)c1ccc([N+](=O)[O-])cc1 | solubility kinetic | µg/mL | = | 11.2
O=C(NCC(=O)N1CCCC(C(F)(F)F)C1)c1ccc(Oc2ccccc2)cc1 (stereo not given) | solubility kinetic | µg/mL | = | 36.3
CCOc1c(Cl)cc(CNCc2ccccn2)cc1OC.Cl | solubility kinetic | µg/mL | = | 45.2
Cc1nn(C)c(C)c1NS(=O)(=O)c1c(C)n[nH]c1C | solubility kinetic | µg/mL | > | 42.5
Cc1ccc(S(=O)(=O)N2CCN(C)CC2)cc1 | solubility kinetic | µg/mL | > | 38.2
Cc1ccc(NC(=S)Nc2cc(C)on2)cc1 | solubility kinetic | µg/mL | = | 31.8
COc1cccc(OC)c1CNC(=O)CCSCc1ccccc1F | solubility kinetic | µg/mL | = | 37.3
CC(=O)OC1CCC2(/C=N/O)C(=CCC3C4CCC(=O)C4(C)CCC32)C1 (stereo not given) | solubility kinetic | µg/mL | > | 53.9
CCOC(Cn1cc(C)c(=O)[nH]c1=O)OCC | solubility kinetic | µg/mL | > | 36.3
Cc1c(N=Cc2c(O)n(C)c(=O)[nH]c2=O)c(=O)n(-c2ccccc2)n1C | solubility kinetic | µg/mL | > | 53.3
CCCNC(=O)c1csc(Nc2cccc3ccccc23)n1 | solubility kinetic | µg/mL | = | 17.8
O=C(O)c1ccc(-c2nc3scc(-c4ccccc4)c3c(=O)[nH]2)cc1 | solubility kinetic | µg/mL | > | 52.3
COc1ccc(C(CC(=O)O)N2Cc3ccccc3C2=O)cc1OC (stereo not given) | solubility kinetic | µg/mL | > | 51.2

* * *

EXPERIMENTAL_SETUP: buffer; pH 7.4; 200.0 µM

COMPOUND | QUANTITY_UNIT | READING_QUALIFIER | solubility kinetic
Cc1ccc(NC(=O)CO/N=C(\N)c2ccccc2)cc1C | µg/mL | = | 5
O=C(COc1ccccc1Cl)Nc1ccc2[nH]c(=O)[nH]c2c1 | µg/mL | = | 2
CNC(=O)N1CCC(C(=O)c2c(C)c(C)c(C)c(C)c2C)CC1 | µg/mL | = | 36.5
CCOC(=O)c1ccc(NC(=O)NCc2cccnc2)cc1 | µg/mL | > | 44.9
COc1ccc(NC(=O)CCn2cc(C)c3ccccc32)cc1 | µg/mL | = | 4.4
CCc1ccccc1NC(=O)CCS(=O)(=O)c1ccc(C)cc1 | µg/mL | > | 49.7
CCOc1ccc(S(=O)(=O)N2CC(=O)Nc3ccccc32)cc1 | µg/mL | = | 10.7
COc1cc(NC(=O)Nc2cccc3cccnc23)cc(OC)c1OC | µg/mL | = | 0.4
NCCc1cnc[nH]1 | µg/mL | = | 14.1
O=C(c1ccc([N+](=O)[O-])cc1)N1CCN=C1SCc1ccccc1 | µg/mL | = | 17.4
CC(=O)Nc1ccc(NS(=O)(=O)c2ccc(C)cc2)c([N+](=O)[O-])c1 | µg/mL | > | 52.4
O=C(COc1ccccc1Cl)NCCCNC(=O)c1ccncc1 | µg/mL | = | 44.7
CC1CCCCC1NCC(=O)Nc1ccccc1C(=O)Nc1ccccc1 (centres undefined) | µg/mL | = | 4
O=C(O)CN1CCN(C(c2ccccc2)c2ccccc2)CC1 | µg/mL | > | 46.6
CCOC(=O)N1CCN(CC(=O)Nc2ccc(F)cc2F)CC1 | µg/mL | > | 49.1
CCCCN(C(=O)c1cc(-c2ccncc2)nc2ccccc12)c1c(N)n(CC(C)C)c(=O)[nH]c1=O | µg/mL | = | 10
CCN1CCc2c(C#N)c(NCc3ccccc3)nc(NCCO)c2C1 | µg/mL | = | 6.3
COc1ccc(S(=O)(=O)N2CCc3ccccc32)cc1C(=O)N1CCC(C)CC1 | µg/mL | = | 57.8
O=c1[nH]c(O)c(/C=C2\C=Nc3ccc(Br)cc32)[nH]1 | µg/mL | = | 3.3
Cc1noc(C)c1C(=O)N1CCC(C(=O)c2ccccc2)CC1 | µg/mL | = | 41.8
Cc1onc(-c2ccccc2)c1-c1ccnc(N)n1 | µg/mL | = | 33.8
CCCCC(=O)Nc1cccc(NC(=O)c2cccnc2Cl)c1 | µg/mL | > | 49.8
CN(Cc1cccc(F)c1)CC(O)COCc1ccccc1Cl (centres undefined) | µg/mL | = | 44.9
N#Cc1c(C(F)(F)F)cc(-c2ccc(F)cc2)nc1SCC(=O)O | µg/mL | = | 51.2
